- Tgt: UT receptors in HSMM (Human Skeletal Muscle Myoblasts) (Homo sapiens)
- Sequence (Q9UKP6 whole entry): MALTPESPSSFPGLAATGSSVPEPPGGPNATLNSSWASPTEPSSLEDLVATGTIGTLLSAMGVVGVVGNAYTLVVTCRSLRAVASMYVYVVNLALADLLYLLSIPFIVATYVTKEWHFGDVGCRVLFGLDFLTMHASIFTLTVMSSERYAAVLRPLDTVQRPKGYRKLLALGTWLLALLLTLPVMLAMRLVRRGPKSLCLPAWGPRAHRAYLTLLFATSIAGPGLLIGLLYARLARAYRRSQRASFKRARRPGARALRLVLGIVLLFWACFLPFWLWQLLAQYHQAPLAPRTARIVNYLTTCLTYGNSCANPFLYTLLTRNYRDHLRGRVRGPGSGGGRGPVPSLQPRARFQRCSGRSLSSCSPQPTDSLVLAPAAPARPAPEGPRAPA
- Procedure Text: Human Radioligand Binding Assay ((^125I)-U-II binding to intact HSMM)
Reported pKi by item:
The meaning of pKi here: minus log10 of the concentration in molar units.

Answered cases to consult:
{"Chemical String": "CCN1CCN(c2cccc3c2CN([C@H](CCCN(C)Cc2ccco2)c2ccc(OC)c(OC)c2)C3=O)CC1", "Measured Endpoint": "pKi", "Observed Value": 7.37}
{"Chemical String": "CCN1CCN(c2cccc3c2CN([C@H](CCCN(Cc2ccccc2)Cc2ccccc2)c2ccc(OC)c(OC)c2)C3=O)CC1", "Measured Endpoint": "pKi", "Observed Value": 7.28}
{"Chemical String": "CCN1CCN(c2cccc3c2CN([C@H](CCCNc2ncccn2)c2ccc(OC)c(OC)c2)C3=O)CC1", "Measured Endpoint": "pKi", "Observed Value": 7.32}

// below: pKi requested for another compound
Read the entry `COc1ccc([C@@H](CCCOCc2ccccc2)N2Cc3c(cccc3N3CCNCC3)C2=O)cc1OC` and write its reported pKi.
6.78

* * *

Quick reference for pIC50 among some molecules
- Tgt: rat GPR14 (U-II receptor) (Rattus norvegicus, UniProt P49684)
- Sequence (P49684 1-386): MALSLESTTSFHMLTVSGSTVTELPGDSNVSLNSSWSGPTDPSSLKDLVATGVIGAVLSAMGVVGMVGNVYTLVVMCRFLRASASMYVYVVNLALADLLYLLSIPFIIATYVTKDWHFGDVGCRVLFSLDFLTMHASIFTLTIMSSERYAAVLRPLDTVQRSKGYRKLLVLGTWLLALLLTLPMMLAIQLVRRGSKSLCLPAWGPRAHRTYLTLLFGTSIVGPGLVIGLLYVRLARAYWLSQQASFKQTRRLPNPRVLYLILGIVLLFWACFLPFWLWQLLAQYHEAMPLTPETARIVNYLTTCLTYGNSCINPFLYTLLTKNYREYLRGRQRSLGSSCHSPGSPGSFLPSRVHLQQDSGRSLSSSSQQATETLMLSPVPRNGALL
- Procedure Text: Rat UII Calcium Mobilization FLIPR Assay
- Experimental Context: CHO cells transfected with rat GPR14; antagonist activity after 5 min incubation vs agonist (Ac)-CFWK(2-NaI)C-NH2 at 1 nM
Please treat pIC50 as minus the base-10 logarithm of the molar concentration.

{"Molecule": "CCN1CCN(c2cccc3c2CN([C@H](CCCN(C)Cc2ccco2)c2ccc(OC)c(OC)c2)C3=O)CC1 [Cpd 94]", "pIC50": 8.40}
{"Molecule": "CCN1CCN(c2cccc3c2CN([C@H](CCCN(C)Cc2ccc(F)cc2)c2ccc(OC)c(OC)c2)C3=O)CC1 [Cpd 99]", "pIC50": 8.40}
{"Molecule": "CCN1CCN(c2cccc3c2CN([C@H](CCCNC(=O)c2cn(C)cn2)c2ccc(OC)c(OC)c2)C3=O)CC1 [Cpd 57]", "pIC50": 6.61}
{"Molecule": "CCN1CCN(c2cccc3c2CN([C@H](CCCNc2c(N)c(=O)c2=O)c2ccc(OC)c(OC)c2)C3=O)CC1 [Cpd 76]", "pIC50": 7.34}
{"Molecule": "COc1ccc([C@@H](CCCNS(=O)(=O)c2cccs2)N2Cc3c(cccc3N3CCN(C(C)C)CC3)C2=O)cc1OC [Cpd 65]", "pIC50": 8.52}
{"Molecule": "CCN1CCN(c2cccc3c2CN([C@H](CCCN(Cc2ccccc2)Cc2ccccc2)c2ccc(OC)c(OC)c2)C3=O)CC1 [Cpd 73]", "pIC50": 7.59}

The record that follows has no pIC50 shown yet.
Give the measured pIC50 for CCN1CCN(c2cccc3c2CN([C@H](CCCOCc2c(F)cccc2F)c2ccc(OC)c(OC)c2)C3=O)CC1 [Cpd 46]
5.11
